systemName: DNMT1 (Homo sapiens, UniProt P26358)
Sequence (P26358 whole entry, looked up): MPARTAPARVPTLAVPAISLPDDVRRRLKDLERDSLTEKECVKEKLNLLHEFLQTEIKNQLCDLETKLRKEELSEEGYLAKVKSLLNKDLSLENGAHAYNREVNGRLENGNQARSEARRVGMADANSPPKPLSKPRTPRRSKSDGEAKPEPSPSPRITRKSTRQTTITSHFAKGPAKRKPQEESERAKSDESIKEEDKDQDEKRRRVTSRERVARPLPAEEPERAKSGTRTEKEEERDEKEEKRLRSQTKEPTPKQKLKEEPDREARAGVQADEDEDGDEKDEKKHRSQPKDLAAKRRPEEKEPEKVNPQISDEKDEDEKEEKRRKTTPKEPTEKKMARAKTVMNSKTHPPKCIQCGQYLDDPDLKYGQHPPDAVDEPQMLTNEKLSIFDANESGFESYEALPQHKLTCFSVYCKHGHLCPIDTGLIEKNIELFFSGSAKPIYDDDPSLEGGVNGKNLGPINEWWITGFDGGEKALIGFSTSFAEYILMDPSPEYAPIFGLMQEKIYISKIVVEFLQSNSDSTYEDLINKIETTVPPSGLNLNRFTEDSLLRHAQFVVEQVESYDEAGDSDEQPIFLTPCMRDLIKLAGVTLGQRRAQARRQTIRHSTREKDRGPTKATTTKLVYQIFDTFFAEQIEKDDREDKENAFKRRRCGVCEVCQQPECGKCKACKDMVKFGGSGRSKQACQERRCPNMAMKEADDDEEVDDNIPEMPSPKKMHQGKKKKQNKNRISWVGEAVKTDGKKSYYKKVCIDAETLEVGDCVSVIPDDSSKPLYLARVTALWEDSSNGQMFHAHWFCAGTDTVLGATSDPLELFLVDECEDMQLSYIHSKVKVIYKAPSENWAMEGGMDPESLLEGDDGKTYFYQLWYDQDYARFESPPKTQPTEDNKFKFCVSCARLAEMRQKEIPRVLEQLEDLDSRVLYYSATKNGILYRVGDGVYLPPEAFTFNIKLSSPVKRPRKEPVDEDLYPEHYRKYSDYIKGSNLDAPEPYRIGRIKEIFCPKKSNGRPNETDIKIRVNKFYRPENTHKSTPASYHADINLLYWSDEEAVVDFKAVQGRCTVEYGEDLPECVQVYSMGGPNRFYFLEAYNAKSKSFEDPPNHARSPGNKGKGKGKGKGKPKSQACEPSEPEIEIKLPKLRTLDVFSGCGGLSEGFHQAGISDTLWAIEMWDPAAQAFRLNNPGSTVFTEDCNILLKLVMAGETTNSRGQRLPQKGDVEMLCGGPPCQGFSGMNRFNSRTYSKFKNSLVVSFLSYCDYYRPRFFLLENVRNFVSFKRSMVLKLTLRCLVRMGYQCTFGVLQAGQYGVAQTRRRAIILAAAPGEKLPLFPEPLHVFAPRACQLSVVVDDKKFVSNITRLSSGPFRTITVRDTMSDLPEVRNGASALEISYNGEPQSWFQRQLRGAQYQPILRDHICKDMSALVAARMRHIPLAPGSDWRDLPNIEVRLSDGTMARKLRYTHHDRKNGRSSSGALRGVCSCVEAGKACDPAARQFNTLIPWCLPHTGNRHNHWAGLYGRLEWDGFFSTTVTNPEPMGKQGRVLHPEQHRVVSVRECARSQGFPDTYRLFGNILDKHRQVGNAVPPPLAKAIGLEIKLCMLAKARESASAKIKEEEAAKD
testMethodNotes: DNMT1 biochemical activity, breaklight assay and/or SPA assay
appliedConditions: binned activity in either the breaklight or the SPA assay; read-out: DNMT1 BioChemical (pIC50 category) (converted)
Where a name gives a salt, the structure may show the parent alone.
Recorded IC50 for the following compounds

compound	endpointValue
CCc1c(C#N)c(S[C@@H](C(N)=O)c2ccc(F)cc2)nc(N2CC[C@H](OP(=O)(O)O)C2)c1C#N [Example 426]	1000 to 31600 nM
CCCOc1c(C#N)c(SC(C(N)=O)c2ccccc2)nc(N2CCCN(CCO)CC2)c1C#N (centres unmarked) [Example 213]	316 to 1000 nM
CCc1c(C#N)c(SC(C(N)=O)c2cccc(F)n2)nc(N2CCCN(C)CC2)c1C#N (centres unmarked) [Example 206]	316 to 1000 nM
CCc1c(C#N)c(N[C@@H](C(N)=O)c2ccccc2)nc(N2CCCNCC2)c1C#N [Example 41]	316 to 1000 nM
CCc1c(C#N)c(SC(C(N)=O)c2cccc(C(F)(F)F)c2)nc(N2CCCN(C)CC2)c1C#N (centres unmarked) [Example 223]	316 to 1000 nM
CCc1c(C#N)c(SCc2ccc(CNC(C)=O)cc2)nc(N2CCC(O)C2)c1C#N (centres unmarked) [Example 331]	316 to 1000 nM
CCc1c(C#N)c(C)nc(SC(C(N)=O)c2ccccc2)c1C#N (centres unmarked) [Example 283]	316 to 1000 nM
CCc1c(C#N)c(SC(C(N)=O)c2ccc(F)nc2)nc(N2CCCN(C)CC2)c1C#N (centres unmarked) [Example 228]	1000 to 31600 nM
CCc1c(C#N)c(SC(C(N)=O)c2ccccc2)nc(N(C)CCn2cnnc2)c1C#N (centres unmarked) [Example 352]	316 to 1000 nM
CCc1c(C#N)c(SC(C(N)=O)c2ccccc2)nc(N2CCN(Cc3ccon3)CC2)c1C#N (centres unmarked) [Example 183]	316 to 1000 nM

Let us move to another entry and its IC50.
Prompt: Returns the measured IC50 for the input compound. Input: CCc1c(C#N)c(SC(C(N)=O)c2ccc(F)cn2)nc(N2CCC(N3CCCC3)CC2)c1C#N (centres unmarked) [Example 211, Formic Acid Salt]
Response: 316 to 1000 nM

---

Tested on: erythroid progenitor cells (EPCs)
testMethodNotes: Fetal hemoglobin (HbF) ELISA in day 7 erythroid progenitor cells;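 further: for fetal hemoglobin induction normalized to vehicle-treated cells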
Type: cell-based, human
appliedConditions: Homo sapiens, Erythroid progenitor cell, HbF ELISA, day 7 EPCs, 5 days; read-out: EPC ELISA (pEC50 category) (converted)
measuredEndpoint: EC50

Past entries and their recorded results:
molecule	EC50
CCc1c(C#N)c(S[C@@H](C(N)=O)c2ccccc2)nc(N2CC[C@H](N)[C@H](F)C2)c1C#N [Example 509]	< 316 nM
CCc1c(C#N)c(SC(C(N)=O)c2ccccc2)nc(N2CCC(N3C(=O)COC3=O)CC2)c1C#N (centres unmarked) [Example 260]	1000 to 31600 nM
CCc1c(C#N)c(SC(C(N)=O)c2ccccc2)nc(N2CCC(C)(NCCO)CC2)c1C#N (centres unmarked) [Example 643]	< 316 nM
CCc1c(C#N)c(SCc2ccc(N(C)S(C)(=O)=O)cc2)nc(N(C)CCN(CC)CC)c1C#N [Example 579]	< 316 nM
CCc1c(C#N)c(SC(C(N)=O)c2ccccc2)nc(N2CCC(F)(F)CC2)c1C#N (centres unmarked) [Example 133]	1000 to 31600 nM
CCc1c(C#N)c(SCc2ccc(S(=O)(=O)NC)cc2)nc(N2CCCN(C)CC2)c1C#N [Example 104]	< 316 nM
CCc1c(C#N)c(SC(C(N)=O)c2ccc(OC)cn2)nc(N2CCCN(C)CC2)c1C#N (centres unmarked) [Example 221]	< 316 nM

Prompt: Returns the measured EC50 for the input molecule. Input: CCc1c(C#N)c(SC(C(N)=O)c2ccccc2)nc(N2CCC(N3CCOCC3)CC2)c1C#N (centres unmarked) [Example 503]
Response: 316 to 1000 nM
